Cited source for all entries: a melting point compilation (Tetko et al.; mined from patent text by program, amines drawn as free bases though some values may be those of a salt)

reported property: melting point

Which melting point value is on record for `CCOC(=O)COc1ccc(N)cc1C(F)(F)F` ?
78 to 80 °C

Which melting point value is on record for O=C1CC(=O)OC(CCc2ccccc2)(C2CCCC2)C1 (stereo unspecified) ?
96 to 99 °C

Which melting point value is on record for `O=C(O)CCc1ccnc(-c2nc(=O)c3ccc(Cl)cc3s2)c1` ?
263 to 264 °C

Which melting point value is on record for `Cc1nc(CC(C)C)c(C#N)c(-c2ccc(Cl)cc2)c1C(=O)OC(C)(C)C` ?
70 to 72 °C

Which melting point value is on record for `C#CCN1C(=O)COc2ccc(-n3c(Cl)nc(C(F)(F)F)cc3=O)cc21` ?
143 to 145 °C

Which melting point value is on record for `CNC(=O)c1c(C)nc(C)n1Cc1ccc2oc(-c3ccccc3NS(=O)(=O)C(F)(F)F)c(Br)c2c1` ?
208 to 210 °C
